Ref: BindingDB's records for doi:10.7270/Q24Q7SF3

- target_entity: Alkaline phosphatase, tissue-nonspecific isozyme (Homo sapiens, UniProt P05186)
- Sequence (P05186 whole entry): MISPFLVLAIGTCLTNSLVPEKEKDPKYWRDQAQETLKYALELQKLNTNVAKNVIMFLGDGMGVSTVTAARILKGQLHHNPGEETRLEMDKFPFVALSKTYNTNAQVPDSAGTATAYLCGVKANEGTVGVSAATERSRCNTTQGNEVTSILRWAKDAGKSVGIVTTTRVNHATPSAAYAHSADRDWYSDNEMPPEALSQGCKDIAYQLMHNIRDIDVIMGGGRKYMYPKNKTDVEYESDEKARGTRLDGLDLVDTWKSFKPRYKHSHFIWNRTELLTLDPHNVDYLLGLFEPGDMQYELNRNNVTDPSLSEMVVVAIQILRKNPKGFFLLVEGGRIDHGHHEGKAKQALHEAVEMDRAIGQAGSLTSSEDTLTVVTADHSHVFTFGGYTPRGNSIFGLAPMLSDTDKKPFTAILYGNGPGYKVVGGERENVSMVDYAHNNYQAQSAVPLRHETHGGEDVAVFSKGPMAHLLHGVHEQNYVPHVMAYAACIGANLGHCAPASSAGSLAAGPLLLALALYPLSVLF
- assay: activation of tissue-nonspecific alkaline phosphatase – biochemical, TNAP isozyme, human IAP uHTS hits, selectivity assay for human IAP activator project, dose response (AID 488886)
outcome_measure: EC50 (µM)
Kindly provide the numeric value in µM only, without the unit symbol.

Some solved cases for reference:
C=c1[nH]n(-c2nc3ccccc3[nH]2)c(=O)c1=CN(C)C ... 11.4
CCc1ccc(CN=Nc2ncnc3nc[nH]c23)cc1 ... 17.7
Cc1cc(Br)ccc1SCC(=O)OCC(=O)C(C#N)c1nc2ccccc2[nH]1 (stereo not drawn) ... 24.1
COc1cccc(C=NNC(=O)c2[nH][nH]c(=O)c2C)c1O ... 8.88
CCOC(=O)c1c(C)[nH]c(C(=O)N/N=C/C2C=C([N+](=O)[O-])C=CC2=O)c1C (stereo not drawn) ... 22.3

Here is another compound to look at.
Request: What EC50 value was documented for this compound, Cn1c(C(C#N)C(=O)c2ccc(Br)s2)nc2ccccc21 (stereo not drawn) ?
Response: 45
